These entries and their values trace back to patent US5292737A.

Recorded measurements of pIC50, one per entry
Target: PKC isoenzyme ε (Homo sapiens)
Construct: made in house; host or cells: baculovirus-insect cell expression system
Sequence (Q02156 1-737): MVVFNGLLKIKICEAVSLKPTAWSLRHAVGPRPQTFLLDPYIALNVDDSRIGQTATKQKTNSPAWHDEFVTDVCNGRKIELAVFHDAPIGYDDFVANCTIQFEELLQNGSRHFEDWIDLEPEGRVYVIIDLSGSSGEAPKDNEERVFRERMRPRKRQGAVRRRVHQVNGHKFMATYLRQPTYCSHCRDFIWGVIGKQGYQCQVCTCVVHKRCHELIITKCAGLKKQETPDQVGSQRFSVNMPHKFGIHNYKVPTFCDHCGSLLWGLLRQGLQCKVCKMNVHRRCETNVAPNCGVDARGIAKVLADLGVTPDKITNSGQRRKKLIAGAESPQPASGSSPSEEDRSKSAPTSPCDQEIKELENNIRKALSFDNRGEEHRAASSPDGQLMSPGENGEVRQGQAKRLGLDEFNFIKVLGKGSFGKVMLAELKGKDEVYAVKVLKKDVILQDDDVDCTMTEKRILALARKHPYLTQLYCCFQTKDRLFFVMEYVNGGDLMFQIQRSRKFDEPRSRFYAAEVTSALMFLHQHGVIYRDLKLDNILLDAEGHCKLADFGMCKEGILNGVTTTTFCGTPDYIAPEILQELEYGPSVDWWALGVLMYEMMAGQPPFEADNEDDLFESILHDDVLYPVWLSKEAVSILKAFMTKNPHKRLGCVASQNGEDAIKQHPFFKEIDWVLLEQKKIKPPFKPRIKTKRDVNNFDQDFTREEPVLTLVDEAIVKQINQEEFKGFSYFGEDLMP
Assay: Protein kinase C inhibition assay, PKC isoenzyme ε
Assay type: biochemical
Details: read-out: IC50 PKC ε
pIC50: −log10 of the molar value.

Asked: Fill in the blank: the reported pIC50 of Cc1cc(C)nc(NS(=O)(=O)c2ccc(N=C3C=C(Nc4ccc(S(=O)(=O)Nc5cc(C)cc(C)n5)cc4)C(=O)c4ccccc43)cc2)c1 [Compound 3aj] is ____.
Given back: < 3.82
